growth inhibition reference
Assay: NCI Yeast Anticancer Drug Screen. Data for the rad50 strain (AID 155);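 also: 0% = growth of vehicle-only cultures of the same strain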
Conditions: S. cerevisiae rad50 strain growth inhibition; at 100.0 µM; active compounds read high
About 79,000 compounds went through this panel and 15% of them were active in at least one assay; those are over-represented in the sample as a whole.
Give just the numeric value; % need not be written.

compound	growth inhibition, %
CC1CC(C)CC(C)C(O)/C(C#N)=C/C=C/CC(C2CCCC2C(=O)O)OC(=O)CC(O)C(C)C1 (stereo not given)	97
C[CH2][Sn]([CH2]C)([O]S(C)(=O)=O)[O]S(C)(=O)=O	6
OC1(c2ccccc2)CC2CCC(C1)N2CCCC(O)(c1ccccc1)c1ccccc1 (stereo not given)	62
O=C(O)C1C2CCC(C2)C1c1ccccc1 (stereo not given)	34

Query growth inhibition for CC[C@@]1(O)C(=O)OCc2c1cc1n(c2=O)Cc2cc3c(NC(=O)CN)cccc3nc2-1
88

Query growth inhibition for CNCC(O)c1ccc(O)c(O)c1.[Pt].c1ccc([PH+](c2ccccc2)c2ccccc2)cc1.c1ccc([PH+](c2ccccc2)c2ccccc2)cc1
96

Query growth inhibition for Oc1c(Br)cc(Br)cc1Br
91

---

growth inhibition reference
Test: NCI Yeast Anticancer Drug Screen. Data for the mec2-1 strain (AID 157)
Details: S. cerevisiae mec2-1 strain, at 50.0 µM (retest, dose inferred, filed as 5.0), active compounds read high
Compounds without any hit were thinned out: in the full panel of roughly 79,000, 15% have a hit.
Give just the numeric value; % need not be written.

Please review the entries below; each comes with its answer.
compound	value unit	growth inhibition
c1ccc2c(c1)c1cccc3c4c5ccccc5c5cccc(c2c13)c54	%	0
C/C(=N\O)C(CN(C)C)C(c1ccccc1)c1c(O)c2ccccc2oc1=O (stereo not given)	%	12
ClCCN(CCCl)CCN1c2ccccc2Sc2ccc3ccccc3c21	%	53
[Cl][Sn]([c]1ccccc1)[c]1ccccc1	%	96
CC(=O)[O-].CC(=O)[O-].O=C(N/N=C/c1cc(Cl)cc(Cl)c1[OH2+])c1ccncc1.[Mn+2]	%	98
CC/C(=C\c1ccc(Cl)cc1)[N+](=O)[O-]	%	99
O=C1CCC[N]1[Hg][N]1CCCC1=O	%	51
O=C1C(=O)c2cccc3cccc1c23	%	51

Query growth inhibition for COC1CC2C(C[CH]1[Hg][Cl])C2(Cl)Cl (stereo not given)
100

Query growth inhibition for CCCCN(C)CC(C(C)=O)C(c1ccccc1)c1c(O)c2ccccc2oc1=O (stereo not given)
18

Query growth inhibition for COc1cc(CC(=O)N2CC2)cc(OC)c1OC
8

Query growth inhibition for CCC[CH2][Sn]([Cl])([CH2]Cl)[CH2]CCC
100

Query growth inhibition for Clc1c(CI)ccc(CI)c1Cl
90

Query growth inhibition for Cc1cc[n+](C2=C(Nc3cc(C)cc(C)c3)C(=O)c3ccccc3C2=O)cc1
11

Query growth inhibition for Cc1ccc(C#CCN2CCCCC2)cn1
-47

Query growth inhibition for CCC1(O)C(=O)OCc2c1cc1n(c2=O)Cc2cc3ccc(C#N)cc3nc2-1 (stereo not given)
-6

---

Assay: NCI Yeast Anticancer Drug Screen. Data for the mec2-1 strain (AID 157)
Settings: S. cerevisiae mec2-1 strain, at 50.0 µM
Compounds without any hit were thinned out: in the full panel of roughly 79,000, 15% have a hit. Activity calls are given as the source filed them. No stated cut-off is given here; in the data, active means growth inhibition above about 70%; inactive means the rest.
// classify into active, inactive

The examples below pair each entry with its known result.
compound	label value
CC[PH+](CC)CC.CC[PH+](CC)CC.[Au]	active
CC[CH2][Sn]([CH2]CC)([CH2]CC)[CH2]CCBr	active

// return assay outcome for CC12CCC(O)CC1=CCC1C2CCC2(C)C(NC(=O)C3CCCN3C(=O)CN(CCCl)CCCl)CCC12 (stereo not given)
active

// return assay outcome for C[C@]12CC/C(=N\NC(=O)c3ccncc3)C[C@@H]1CC[C@@H]1[C@@H]2CC[C@]2(C)[C@@H](O)CC[C@@H]12
inactive

// return assay outcome for O=C(O)c1ccc(NP(=O)(O)Oc2ccccc2)cc1 (tested in a mixture with another compound)
inactive

// return assay outcome for COc1cc[c]([Sb]([Br])([CH]=C(C)C)([CH]=C(C)C)[CH]=C(C)C)cc1
active

// return assay outcome for O=C(O)C1C2c3cccc4cccc(c34)C12 (stereo not given)
active

---

Assay: NCI Yeast Anticancer Drug Screen. Data for the mec2-1 strain (AID 157)
Conditions: S. cerevisiae mec2-1 strain, at 50.0 µM
Experimental: Growth inhibition of yeast strains with defined genetic alterations is measured as a screen for potential anti-cancer activity. Selected strains with alterations in DNA damage repair or cell cycle control were exposed to compounds and growth inhibition was measured relative to vehicle treated controls. The strain used in this assay is mec2-1
Compounds without any hit were thinned out: in the full panel of roughly 79,000, 15% have a hit. The source made the active and inactive calls. Rule as the data show it: active = growth inhibition above about 70%; inactive = the rest.
// classify into true (1) = active, false (0) = inactive

The examples below pair each entry with its known result.
compound	label value
CN(C)c1ccc(C2N(Cc3ccc(N(CCCl)CCCl)cc3Cl)CCCN2Cc2ccc(N(CCCl)CCCl)cc2Cl)cc1	true (1)
CC(=O)Oc1cccc2c1CC(C[Se]c1ccccc1)C(=O)O2 (stereo not given)	false (0)
CC12CCC(C)(c3cc(O)c(O)cc31)c1cc(O)c(O)cc12	false (0)
CCCCCCCC/C=C\CCCCCCCCN1CC(C(=O)[O][Pb]([CH2]C)([CH2]C)[CH2]C)CC1=O (stereo not given)	false (0)
Cc1ccccc1C[As](C)(=O)O	false (0)
c1ccc2c3ccn4cc5c(cc4c-3nc2c1)CCCC5	true (1)
CCOP(=O)(OCC)/C(C#N)=C/c1ccccc1Cl	true (1)
CC(C)(C)c1cc([N+](=O)[O-])cc([N+](=O)[O-])c1O	true (1)
CCOC(=O)C1C2c3ccccc3C(c3ccccc32)C1C(=O)OCC (stereo not given)	true (1)
O=C1NC(=O)C(C(c2ccnc3ccccc23)C2C(=O)NC(=O)NC2=O)C(=O)N1	false (0)

// return assay outcome for CCC[CH2][Sn]([F])([CH2]CCC)[O][Sn]([F])([CH2]CCC)[CH2]CCC
true (1)

// return assay outcome for CC(=O)Nc1cccc([As+](C)(c2cccc(NC(C)=O)c2)c2cccc(NC(C)=O)c2)c1
false (0)

// return assay outcome for O=C(/C=C(\c1ccccc1)N1CC1)c1ccccc1
false (0)

// return assay outcome for CC1=CCC2(C)C3CCC4(C)C(O)CCC4C3CCC2(C)C1 (stereo not given)
false (0)

// return assay outcome for O=C(OCc1ccccc1)C(C(Cl)c1ccccc1)N(Cc1ccccc1)Cc1ccccc1 (stereo not given)
true (1)

---

Experiment: NCI Yeast Anticancer Drug Screen. Data for the mec2-1 strain (AID 157)
Conditions: S. cerevisiae mec2-1 strain, at 100.0 µM, active compounds read high
The panel holds about 79,000 compounds, 15% with a hit somewhere; the sample as a whole holds those more often.
Think of 60% as a floor: if growth inhibition stands on it or above, it is Y; beneath it, N.

The examples below pair each entry with its known result.
compound	label value
CC1(Cl)CC(C)(/C=C/Cl)C(Cl)CC1Cl (stereo unspecified)	N
Nc1nc(N)c2c(Cl)c(CNc3ccc(C(=O)NC(CC(=O)O)C(=O)O)cc3)ccc2n1 (stereo unspecified)	Y
COC(=O)C(F)C(Br)C(=O)OC (stereo unspecified)	Y
CCC(=O)OC1CCn2c1nc1c2C(=O)C(C)=C(N2CC2)C1=O (stereo unspecified)	Y
OC1(c2ccccc2)CC2CCC(C1)N2CCCC(O)(c1ccccc1)c1ccccc1 (stereo unspecified)	N

Now let's try a different one.
Does S=C1NC2(CCCCC2)NC12CCCCC2 have a reported growth inhibition of at least 60%?
N

---

Assay: NCI Yeast Anticancer Drug Screen. Data for the rad52 strain (AID 147);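 also: 0% = growth of vehicle-treated control cultures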
Details: S. cerevisiae rad52 mutant growth inhibition; at 33.0 µM; active compounds read high
Compounds without any hit were thinned out: in the full panel of roughly 79,000, 15% have a hit.
growth inhibition reference
Give just the numeric value; % need not be written.

Please review the entries below; each comes with its answer.
compound	observed measurement
C[C@@]12CCC(=O)C=C1CC[C@H]1C2=CC[C@]2(C)C1CC[C@@]2(C)O (stereo partly drawn)	69
O=C1C2CC(Cl)C(SSC3CC4C(=O)N(SC(Cl)(Cl)C(Cl)Cl)C(=O)C4CC3Cl)CC2C(=O)N1SC(Cl)(Cl)C(Cl)Cl (stereo not drawn)	95
c1ccc2cc3n[se]nc3cc2c1	47
COC1CC(CC2CCC(C)C(C(C)C(=O)O)O2)OC2(OC(C)(C3CCC(C)(C4OC(C5OC(O)(CO)C(C)CC5C)CC4C)O3)CC2C)C1C (stereo not drawn)	93

Query growth inhibition for CC1CCCN(CCc2ccccc2)CC1 (stereo not drawn)
16

Query growth inhibition for Nc1ccc(Cl)cc1C(=O)c1ccccc1
46

Query growth inhibition for O=C(O)CCCOc1cc(Cl)c(Cl)cc1Cl
45

Query growth inhibition for Oc1ccc(Cl)cc1Cc1ccccc1
98

Query growth inhibition for C[C@]12CCC(=O)C=C1CC[C@@H]1C2CC[C@@]2(C)C1CC[C@@H]2OC(=O)C12OC1CCC2=O (stereo partly drawn)
83

Query growth inhibition for CC(C)(C)c1cc([N+](=O)[O-])cc([N+](=O)[O-])c1O
17

Query growth inhibition for CN(CCc1ccc(Br)cc1)CCN1CCCCC1
81

Query growth inhibition for Cc1cc[n+](C2=C(Nc3cccc(C(F)(F)F)c3)C(=O)c3ccccc3C2=O)cc1
21

Query growth inhibition for O=c1oc2ccccc2c(O)c1C(c1ccc2c(c1)Cc1ccccc1-2)c1c(O)c2ccccc2oc1=O
65

Query growth inhibition for Cc1ccc2c(c1)C1(C)c3cc(C)ccc3SP1S2 (stereo not drawn)
51

Query growth inhibition for COC(COC(=O)N1CCN(C=O)CC1)C1=C(N2CC2)C(=O)C(C)=C(N2CC2)C1=O (stereo not drawn)
66

Query growth inhibition for Cc1cccc(NC(=O)CBr)c1
98

Query growth inhibition for S=C1NC2(CCCCC2)NC12CCCCC2
2

Query growth inhibition for NC1=NCC(c2ccc(Cl)cc2)O1 (stereo not drawn)
-8

Query growth inhibition for O=C(NNC(=O)OCC(Cl)(Cl)Cl)OCC(Cl)(Cl)Cl
2

Query growth inhibition for Nc1nc(-c2ccccc2)c(-c2ccccc2)[se]1
12

Query growth inhibition for CC(C)CC(NC(=O)C(N)C(C)C)C(=O)NC(CCCCN)C(=O)Nc1ccc(N(CCCl)CCCl)cc1 (stereo not drawn)
23

Query growth inhibition for COc1cccc2c1C(=O)c1c(O)c3c(c(O)c1C2=O)C[C@@](O)(/C(C)=N\O)C[C@@H]3OC1CC(N)C(O)C(C)O1 (stereo partly drawn)
84

Query growth inhibition for O=C(/C=C(\c1ccccc1)N1CC1)c1ccccc1
8
